Quick list: absorption maximum per entry.
Assay: solvent given as SMILES
Conditions: in CCOC(C)=O
Provide only the numeric value, understood in nm.

Request the reported absorption maximum associated with "CC1(C)c2ccccc2N(c2ccc(-c3nnc(-c4ccccc4O)o3)cc2)c2ccccc21"
360

Next: "COc1ccc(C2=C3C=c4c(oc5ccccc45)=[N+]3[B-](F)(F)n3c2cc2c4ccccc4oc23)cc1"
578

And for COC1(OC)C2(Cl)c3nc4cc(-c5cccs5)ccc4nc3C1(Cl)C1C[C@H]3[C@@H](CC12)C1(Cl)c2nc4cc(-c5cccs5)ccc4nc2C3(Cl)C1(OC)OC (some centres undefined) ?
362

One more compound: "Nc1ccc2c(C(F)(F)F)cc(=O)oc2c1"
368

And what about the compound "COc1ccc(/N=N/c2c(O)c3ccccc3n(C)c2=O)c(S(=O)(=O)O)c1" ?
446

Further cases:
Consider the compound "c1ccc2c(-n3c4ccccc4c4ccccc43)cccc2c1" and give its measured absorption maximum.
323

Note, next up: "CC1=CC(C)=[N+]2C1=Cc1c3ccccc3c(C#Cc3ccccc3)n1[B-]2(F)F"
606

Another: Cc1ccc(C2CC(c3ccc(O)cc3)=NN2c2ccc(S(N)(=O)=O)cc2)cc1 (centres undefined)
358

Same question for "CCn1c2ccccc2c2c(C#N)c3c(ccc4c3cnn4C)nc21" please.
383
